# Read-out: Glutamate-cysteine ligase catalytic (GCLC), GCLC (gene 2729)
# Protocol: LTEA_HepaRG_GCLC: Life Technologies and Expression Analysis (LTEA) Assay for Glutamate-cysteine ligase catalytic (GCLC) using HepaRG (AID 2283498)
# Settings: mRNA level, 48 h; actives raise or lower the signal
Calls of active or inactive are those of the source. Rule for the calls: active = hit-call score of the fitted dose curve at least 0.9, where 1 is the maximum; inactive = score below 0.9.
Assign a class; possible classes are class 1 for active, class 0 for inactive

Examples with answers:
C1=CCCC=CCCC=CCC1 ... class 0
Cc1ccc(C)c(O)c1 ... class 0
CCCC(=O)OCC ... class 0
O=C1CCC(N2C(=O)c3ccccc3C2=O)C(=O)N1 (stereo not drawn) ... class 0
O=C(O)c1cccc(Oc2ccccc2)c1 ... class 0
CCCCCCCCCCCCc1ccccc1 ... class 0
CC/C(=C\C(=N/O)C(N)=O)C(C)[N+](=O)[O-] (stereo not drawn) ... class 0
CCC(C)(C)C(=O)O[C@H]1C[C@@H](C)C=C2C=C[C@H](C)[C@H](CC[C@@H]3C[C@@H](O)CC(=O)O3)[C@H]21 ... class 0
O=C(NS(=O)(=O)/C=C/c1ccccc1)c1ccc(F)cc1Cl ... class 0
O=C1CCCCCN1 ... class 0

Tell me the assay call for CC[C@H]1OC(=O)[C@H](C)[C@@H](O[C@H]2C[C@@](C)(OC)[C@@H](O)[C@H](C)O2)[C@H](C)[C@@H](O[C@@H]2O[C@H](C)C[C@H](N(C)C)[C@H]2O)[C@](C)(O)C[C@@H](C)C(=O)[C@H](C)[C@@H](O)[C@]1(C)O please.
class 0

Tell me the assay call for Nc1ccc(Nc2ccccc2)cc1 please.
class 0

Tell me the assay call for COC(=O)c1ccccc1O please.
class 0

Tell me the assay call for CC(C)CC(C)(O)C#CC(C)(O)CC(C)C (stereo not drawn) please.
class 0

Tell me the assay call for Fc1ccccc1[C@@H](F)COC1CCC(Nc2ncnc3[nH]ncc23)CC1 (stereo partly drawn) please.
class 1

Tell me the assay call for O=C(O)c1cc(N=Nc2ccc(S(=O)(=O)Nc3ccccn3)cc2)ccc1O please.
class 0

Tell me the assay call for CC(C)=CCCC(C)CCO (stereo not drawn) please.
class 0

Tell me the assay call for COc1ccc(/C=C/S(=O)(=O)NC(=O)c2ccc(C)cc2Cl)cc1 please.
class 0

Tell me the assay call for Cc1ccc(O)cc1 please.
class 0

Tell me the assay call for CC(=O)OC[C@H]1O[C@@](COC(C)=O)(O[C@H]2O[C@H](COC(C)=O)[C@@H](OC(C)=O)[C@H](OC(C)=O)[C@H]2OC(C)=O)[C@@H](OC(C)=O)[C@@H]1OC(C)=O please.
class 0

Tell me the assay call for Clc1nc(Cl)c(Cl)c(Cl)c1Cl please.
class 0

Tell me the assay call for COC(=O)CC(=O)OC please.
class 0

====

# Read-out: MYC, MYC (gene 4609)
# Protocol: LTEA_HepaRG_MYC: Life Technologies and Expression Analysis (LTEA) Assay for MYC using HepaRG (AID 2283518)
# Settings: mRNA level, 48 h; actives raise or lower the signal
Activity calls are given as the source filed them. How the source made its calls: active means hit-call score of the fitted dose curve at least 0.9, where 1 is the maximum; inactive means score below 0.9.
Assign a class; possible classes are active, inactive

Examples with answers:
CC(C)(O)c1coc(S(=O)(=O)NC(=O)Nc2c3c(cc4c2CCC4)CCC3)c1 ... inactive
CC(C)CCO ... inactive
Nc1ccc(Nc2ccccc2)cc1 ... inactive

Tell me the assay call for COC(=O)CC(=O)OC please.
inactive

Tell me the assay call for C=CC(=C)CCC=C(C)C please.
inactive

Tell me the assay call for C[C@](N)(Cc1ccc(O)c(O)c1)C(=O)O please.
inactive

Tell me the assay call for CC[C@H](C)C(=O)O[C@H]1C[C@@H](C)C=C2C=C[C@H](C)[C@H](CC[C@@H]3C[C@@H](O)CC(=O)O3)[C@H]21 please.
inactive

Tell me the assay call for Cn1cnc([N+](=O)[O-])c1Sc1ncnc2nc[nH]c12 please.
active
